target: α7 nAChRs (Homo sapiens, UniProt P36544); type: cell-based
Sequence (P36544 23-502): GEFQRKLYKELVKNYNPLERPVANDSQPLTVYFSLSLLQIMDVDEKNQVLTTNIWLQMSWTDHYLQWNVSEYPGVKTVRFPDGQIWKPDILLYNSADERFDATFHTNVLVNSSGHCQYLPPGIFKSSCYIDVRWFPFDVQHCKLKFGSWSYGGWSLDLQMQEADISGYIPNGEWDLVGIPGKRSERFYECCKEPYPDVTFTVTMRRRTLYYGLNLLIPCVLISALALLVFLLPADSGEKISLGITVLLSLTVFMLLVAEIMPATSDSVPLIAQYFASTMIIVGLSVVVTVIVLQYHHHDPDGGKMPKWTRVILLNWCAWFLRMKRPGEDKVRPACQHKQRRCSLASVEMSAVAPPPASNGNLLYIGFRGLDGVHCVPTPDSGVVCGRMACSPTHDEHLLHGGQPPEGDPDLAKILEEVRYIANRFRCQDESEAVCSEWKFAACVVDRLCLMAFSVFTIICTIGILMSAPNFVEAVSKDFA
metricName: Agonist Effect Hillslope
// return a plain number; no unit text

molecule	Agonist Effect Hillslope
CN1CCC[C@H]1c1cccnc1 [Sigma-Aldrich S nicotine, S nicotine]	−2.49
CN1CCC[C@@H]1c1cccnc1 [Synthetic R nicotine, R nicotine]	−2.37
CN1CCCC1c1cccnc1 (stereo not shown) [Ref. nicotine (Sigma-Aldrich), nicotine]	−2.23

Consider the additional molecule presented here.
Fill in: Agonist Effect Hillslope of CN1CCC[C@H]1c1cccnc1 [Alchem S nicotine, S nicotine] is ___
−3.15

====

target: α6/3β2β3 nAChRs (Homo sapiens, UniProt Q15825)
Sequence (Q15825 26-239 limits assumed): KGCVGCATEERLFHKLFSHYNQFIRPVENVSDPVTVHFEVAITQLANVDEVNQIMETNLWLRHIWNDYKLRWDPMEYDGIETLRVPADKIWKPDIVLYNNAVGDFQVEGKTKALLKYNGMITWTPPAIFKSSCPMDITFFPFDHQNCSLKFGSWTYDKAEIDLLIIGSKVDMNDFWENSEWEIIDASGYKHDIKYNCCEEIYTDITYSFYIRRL
Sequence (P17787 26-238 limits assumed, further chain): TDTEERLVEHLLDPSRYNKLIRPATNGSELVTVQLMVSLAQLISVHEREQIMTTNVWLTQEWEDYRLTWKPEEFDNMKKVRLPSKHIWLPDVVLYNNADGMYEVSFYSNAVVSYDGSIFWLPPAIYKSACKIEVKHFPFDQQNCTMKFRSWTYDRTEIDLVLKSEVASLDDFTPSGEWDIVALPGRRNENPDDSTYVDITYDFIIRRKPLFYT
Sequence (Q05901 22-237 limits assumed, further chain): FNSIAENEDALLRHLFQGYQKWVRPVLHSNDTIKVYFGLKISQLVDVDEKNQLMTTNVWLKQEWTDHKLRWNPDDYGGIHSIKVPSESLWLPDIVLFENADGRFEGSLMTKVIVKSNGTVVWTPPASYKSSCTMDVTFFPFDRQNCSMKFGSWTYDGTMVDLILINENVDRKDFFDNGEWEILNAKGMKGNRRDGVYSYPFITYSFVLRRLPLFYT
Label TRUE when Agonist Effect Hillslope < -0.7; otherwise FALSE.

molecule	system	labelValue
CN1CCC[C@@H]1c1cccnc1 [Synthetic R nicotine, R nicotine]	α6/3β2β3 nAChRs (Homo sapiens, UniProt Q15825)	TRUE
CN1CCCC1c1cccnc1 (racemic) [Synthetic RS racemic nicotine, RS-Nicotine]	α6/3β2β3 nAChRs (Homo sapiens, UniProt Q15825)	FALSE
CN1CCC[C@H]1c1cccnc1 [Alchem S nicotine, S nicotine]	α6/3β2β3 nAChRs (Homo sapiens, UniProt Q15825)	TRUE

Okay, now this molecule:
Please indicate whether the reported Agonist Effect Hillslope of CN1CCCC1c1cccnc1 (stereo not drawn) [Ref. nicotine (Sigma-Aldrich), nicotine] is strictly below -0.7.
TRUE

Values from patent US10610526B2
